system: bloodstream form (BSF) CA427 trypanosomes; test: Proliferation inhibition assay; assay type: cell-based, Trypanosoma brucei; details: axenic cultures of bloodstream trypanosomes, 48 h
measuredAttribute: T. brucei GL50 (µM)
Use µM as the unit, but write only the number.

[in] What T. brucei GL50 value was documented for this molecule, `Nc1cccc(-c2cc3c(Oc4cccc(O)c4)ncnc3[nH]2)c1` ?
[out] 1.1

[in] What T. brucei GL50 value was documented for this molecule, `CNC(=O)c1cc(Oc2ccc(NC(=O)Nc3ccc(Cl)c(C(F)(F)F)c3)cc2)ccn1` ?
[out] 3.1

[in] What T. brucei GL50 value was documented for this molecule, `Cc1cc(Nc2cc(CN3CCOCC3)c3nc(C)c(Cc4ccc(Cl)cc4F)n3n2)n[nH]1` ?
[out] 1.0

[in] What T. brucei GL50 value was documented for this molecule, `O=C1Nc2ccc3ncsc3c2/C1=C/Nc1ccc(S(=O)(=O)Nc2ccccn2)cc1` ?
[out] 0.12
